- target.system: T1, human ENTPD2, full length, on cells (human, UniProt Q9Y5L3 1-495)
- T1 sequence: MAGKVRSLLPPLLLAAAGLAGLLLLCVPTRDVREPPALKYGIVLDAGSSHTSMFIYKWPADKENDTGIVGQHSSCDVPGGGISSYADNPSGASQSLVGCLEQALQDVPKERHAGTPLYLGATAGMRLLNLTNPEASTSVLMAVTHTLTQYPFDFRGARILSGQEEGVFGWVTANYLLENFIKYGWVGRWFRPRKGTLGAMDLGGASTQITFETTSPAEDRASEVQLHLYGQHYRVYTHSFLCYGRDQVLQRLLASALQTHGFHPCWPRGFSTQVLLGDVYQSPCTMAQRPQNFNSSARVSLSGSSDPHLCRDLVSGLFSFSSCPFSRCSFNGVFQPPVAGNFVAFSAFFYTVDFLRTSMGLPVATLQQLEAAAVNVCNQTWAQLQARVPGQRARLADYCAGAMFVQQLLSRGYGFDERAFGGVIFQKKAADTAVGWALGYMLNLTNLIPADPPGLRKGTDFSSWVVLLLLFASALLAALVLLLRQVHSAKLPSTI
- assay.summary: cell-based or functional assay

binder | Human ENTPD2 NIH/3T3 Assay IC50
ANTI-HUMAN ENTPD2 MAB6 (antibody, human IgG1, kappa, V domains shown) VH: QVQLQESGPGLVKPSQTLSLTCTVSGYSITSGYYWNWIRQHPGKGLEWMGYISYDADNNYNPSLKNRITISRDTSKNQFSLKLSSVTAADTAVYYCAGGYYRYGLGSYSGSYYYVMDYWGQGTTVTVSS VL: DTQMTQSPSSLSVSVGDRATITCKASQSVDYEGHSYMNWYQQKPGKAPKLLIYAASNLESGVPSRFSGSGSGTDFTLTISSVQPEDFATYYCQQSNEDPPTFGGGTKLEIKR | 300 pM
ANTI-HUMAN ENTPD2 MAB17 (antibody, human IgG1, kappa, V domains shown) VH: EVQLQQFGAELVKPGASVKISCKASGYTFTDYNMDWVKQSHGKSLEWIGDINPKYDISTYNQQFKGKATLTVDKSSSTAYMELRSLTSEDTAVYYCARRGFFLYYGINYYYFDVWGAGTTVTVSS VL: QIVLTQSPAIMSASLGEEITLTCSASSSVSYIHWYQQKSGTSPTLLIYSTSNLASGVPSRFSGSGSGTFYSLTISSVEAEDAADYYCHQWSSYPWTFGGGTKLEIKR | 600 pM
ANTI-HUMAN ENTPD2 MAB18 (antibody, human IgG1, kappa, V domains shown) VH: DIQLQESGPGLVKPSQSLSLTCSVTGYSITSGYYWNWIRQFPGNKLEWMGYISYDGDNNYNPSLKNRISITRDTSKNQFFLKLSSVTTEDTATYYCAGGYYRYGLGSYSGSYYYVMDYWGQGTSVTVSS VL: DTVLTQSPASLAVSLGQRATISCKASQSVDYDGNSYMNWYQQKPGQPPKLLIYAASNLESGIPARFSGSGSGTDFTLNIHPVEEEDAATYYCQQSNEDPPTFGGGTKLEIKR | 400 pM
